Test system: CCRIS mutagenicity, Ames/micronucleus/aberration tests
Assay: CCRIS mutagenicity studies
Conditions: Test System: AMES SALMONELLA TYPHIMURIUM; Strain/Indicator: TA100; Metabolic Activation: RAT, LIVER, S-9, PHENOBARBITAL AND 5,6-BENZOFLAVONE; Method: STANDARD PLATE
Calls of active or inactive are those of the source. The rule behind the calls is not given here.
parameterMeasured: mutagenic call

Some solved entries appear below for comparison.
> print(dat)
                                   molecule       valueobserved
1  CC(C)=CCC/C(C)=C/CC/C(C)=C/C(=O)OCC(=O)[C@@]1(O)CC[C@H]2[C@@H]3CCC4=CC(=O)C=C[C@]4(C)[C@H]3[C@@H](O)C[C@@]21C  inactive; negative
2                [Cl][Pd-2]([Cl])([Cl])[Cl]  inactive; negative
3  CC(C)OC(=O)C(C)(C)Oc1ccc(C(=O)c2ccc(Cl)cc2)cc1  inactive; negative
4  CCNCC#CC(C)(C)OC(=O)C(O)(c1ccccc1)C1CCCCC1 (stereo not given)  inactive; negative

For the next question, use this molecule.
Prompt: Which mutagenic call is listed for CCN(CC)CC#CC(C)(C)OC(=O)C(O)(c1ccccc1)C1CCCCC1 (stereo not given) ?
Response: inactive; negative

* * *

Tested on: CCRIS mutagenicity, Ames/micronucleus/aberration tests
Assay: CCRIS mutagenicity studies
Conditions: Test System: CHINESE HAMSTER V-79; Strain/Indicator: V-79/6-THIOGUANINE; Metabolic Activation: NONE; Method: SUSPENSION/PLATE
Calls of active or inactive are those of the source. No rule for the calls is given here.
Respond only with the outcome that fits, drawn from active, inactive

compound	qualitativeLabel
CCOS(C)(=O)=O	active
CN(C)c1ccc(N=Nc2ccccc2)cc1	inactive
CC[C@]1(O)CC2CN(CCc3c([nH]c4ccccc34)[C@@](C(=O)OC)(c3cc4c(cc3OC)N(C=O)[C@H]3[C@@](O)(C(=O)OC)[C@H](OC(C)=O)[C@]5(CC)C=CCN6CC[C@]43[C@@H]65)C2)C1 (stereo not given in full)	inactive

Prompt: What is the recorded call for this compound in the test? `CN(C)c1ccc(C(=N)c2ccc(N(C)C)cc2)cc1`
Response: inactive

Prompt: What is the recorded call for this compound in the test? `COc1cccc2c1C(=O)c1c(O)c3c(c(O)c1C2=O)C[C@@](O)(C(=O)CO)C[C@@H]3O[C@H]1C[C@H](N)C[C@H](C)O1`
Response: active

* * *

Tested on: CCRIS mutagenicity, Ames/micronucleus/aberration tests
Experiment: CCRIS mutagenicity studies
Conditions: Test System: Ames Salmonella typhimurium; Strain/Indicator: TA100; Metabolic Activation: None; Method: Preincubation
Calls of active or inactive are those of the source. How the calls were made is not given here.
Respond only with the outcome that fits, drawn from Y for active, N for inactive

Prompt: What is the recorded call for this compound in the test? `COc1ccc(N/C=C/C2=[N+](C)c3ccccc3C2(C)C)c(OC)c1`
Response: N

Prompt: What is the recorded call for this compound in the test? `NC(=O)/C(=C\c1ccc([N+](=O)[O-])o1)c1ccco1`
Response: Y

Prompt: What is the recorded call for this compound in the test? `Nc1ccc(-c2cc(Cl)c(N)cc2[N+](=O)[O-])cc1Cl`
Response: N

* * *

Test system: CCRIS mutagenicity, Ames/micronucleus/aberration tests
Test: CCRIS mutagenicity studies
Details: Test System: AMES SALMONELLA TYPHIMURIUM; Strain/Indicator: TA98; Metabolic Activation: RAT, LIVER, S-9, PHENOBARBITAL AND 5,6-BENZOFLAVONE; Method: PREINCUBATION
Text: The CCRIS database contains chemical records with carcinogenicity, mutagenicity, tumor promotion, and tumor inhibition test results. It was developed by the National Cancer Institute (NCI). Data are derived from studies cited in primary journals, current awareness tools, NCI reports, and other sources. Test results have been reviewed by experts in carcinogenesis and mutagenesis. CCRIS provides historical information from the years 1985 - 2011. It is no longer updated. […]
Active and inactive are the calls of the source. How the calls were made is not given here.
Respond only with the outcome that fits, drawn from 1 = active, 0 = inactive

Take a look at these entries with their results.
> print(dat)
                    molecule  qualitativelabel
1           OC(O)C(Cl)(Cl)Cl                 0
2  COC1=C(OC)C(=O)C(C)=CC1=O                 0

Field: next molecule
Prompt: What is the recorded call for this molecule in the test? `N#CC(Cl)Cl`
Response: 0

* * *

Test system: CCRIS mutagenicity, Ames/micronucleus/aberration tests
Assay: CCRIS mutagenicity studies
Details: Test System: AMES SALMONELLA TYPHIMURIUM; Strain/Indicator: TA100; Metabolic Activation: NONE; Method: PREINCUBATION
Active and inactive are the calls of the source. How the calls were made is not given here.
Respond only with the outcome that fits, drawn from active, inactive

Take a look at these entries with their results.
> print(dat)
                   compound                        experimentaltarget  qualitativelabel
1  Fc1c(F)c(Cl)c(F)c(Cl)c1F  CCRIS mutagenicity, Ames/micronucleus/aberration tests          inactive
2                 OCc1ccco1  CCRIS mutagenicity, Ames/micronucleus/aberration tests          inactive
3      C1O[C@@H]1[C@@H]1CO1  CCRIS mutagenicity, Ames/micronucleus/aberration tests          inactive

Prompt: What is the recorded call for this compound in the test? `O=C1c2ccc([N+](=O)[O-])cc2C(=O)N1CCl`
Response: active

Prompt: What is the recorded call for this compound in the test? `O=[N+]([O-])c1ccc(Cl)cc1`
Response: inactive

Prompt: What is the recorded call for this compound in the test? O=C(O)C(F)(F)C(F)(Cl)C(F)(F)C(F)(Cl)C(F)(F)Cl (stereo not given)
Response: inactive

Prompt: What is the recorded call for this compound in the test? CCC(CO)[N+](=O)[O-] (stereo not given)
Response: inactive

Prompt: What is the recorded call for this compound in the test? `Clc1nncc2ccncc12`
Response: inactive

Prompt: What is the recorded call for this compound in the test? `O=C(OCc1cccc([N+](=O)[O-])c1)c1ccccc1`
Response: inactive

Prompt: What is the recorded call for this compound in the test? `C=C(C)C(=O)OCC`
Response: inactive

Prompt: What is the recorded call for this compound in the test? `COC(=O)Nc1cccc(OC(=O)Nc2cccc(C)c2)c1`
Response: inactive

Prompt: What is the recorded call for this compound in the test? C1CC2OC2CC1C1CO1 (stereo not given)
Response: active

Prompt: What is the recorded call for this compound in the test? `OCCCBr`
Response: active

Prompt: What is the recorded call for this compound in the test? `CC(=O)Nc1cccc2cccnc12`
Response: inactive

Prompt: What is the recorded call for this compound in the test? COc1ccc(CC2CO2)cc1 (stereo not given)
Response: active

Prompt: What is the recorded call for this compound in the test? `c1ccc(-c2ccccc2)cc1`
Response: inactive

Prompt: What is the recorded call for this compound in the test? `CN(C)N=O`
Response: inactive

Prompt: What is the recorded call for this compound in the test? `[Cl][Pd-2]([Cl])([Cl])[Cl]`
Response: inactive

Prompt: What is the recorded call for this compound in the test? `O=[N+]([O-])c1ccccc1CCO`
Response: inactive

Prompt: What is the recorded call for this compound in the test? `COC1=C(OC)C(=O)C(C)=CC1=O`
Response: inactive

Prompt: What is the recorded call for this compound in the test? `FC(Cl)(Cl)Cl`
Response: inactive

Prompt: What is the recorded call for this compound in the test? `O=C=NCCCCCCN=C=O`
Response: inactive

Prompt: What is the recorded call for this compound in the test? `Cc1cc2nc3c(=O)[nH]c(=O)nc-3n(C[C@H](O)[C@H](O)[C@H](O)CO)c2cc1C`
Response: inactive

Prompt: What is the recorded call for this compound in the test? `O=NN1CCCCC1`
Response: inactive

Prompt: What is the recorded call for this compound in the test? CCOC(=O)C1OC1(C)c1ccccc1 (stereo not given)
Response: inactive

Prompt: What is the recorded call for this compound in the test? `Clc1ccc2ccccc2n1`
Response: inactive

Prompt: What is the recorded call for this compound in the test? `O=[N+]([O-])c1cc([As](=O)(O)O)ccc1O`
Response: inactive

Prompt: What is the recorded call for this compound in the test? CCCCCCCCCCCCOCC1CO1 (stereo not given)
Response: inactive

Prompt: What is the recorded call for this compound in the test? `CC(=O)Nc1ccc(Oc2ccc([N+](=O)[O-])cc2)cc1`
Response: active

Prompt: What is the recorded call for this compound in the test? `O=C1c2ccccc2C(=O)c2c1ccc(O[C@@H]1O[C@H](CO[C@@H]3OC[C@@H](O)[C@H](O)[C@H]3O)[C@@H](O)[C@H](O)[C@H]1O)c2O`
Response: inactive

The values you see were collected from PubChem BioAssay AID1259407.
